Source listed as patent US20120184590A1.

Experiment: Pharmacokinetics of SR13668 in dogs after i.v. and oral gavage dosing
Type: in vivo, beagle dogs
Conditions: male, beagle, dog, plasma, po, 4.68 mg/kg, dogs; 93.6 mg/m^2 (4.68 mg/kg) oral gavage, Solutol, seventh daily dose; fed
Method: Four non-naïve male beagle dogs (approximately 3 years of age; Ridglan Farms Inc. Mt. Horeb, Wis.) and four non-naïve male cynomolgus monkeys [cynos (macaca fasicularis); approximately 7 to 8 years of age; Charles River Laboratories, Inc., Houston, Tex.] were used in this study. […] A freshly prepared SR13668 standard curve was analyzed along with samples on each day of analysis. […]
Assay Readout: Cmax (ng/mL)
Entry rule: numbers only, all in ng/mL.

Briefly, Cmax measured for CCOC(=O)c1ccc2[nH]c3c(OC)c4[nH]c5ccc(C(=O)OCC)cc5c4cc3c2c1 [SR13668] : 207
